Molecular target: T1, Human MuSK (R&D Systems, cat. 10189-MK, histidine tag) (human, UniProt O15146 24-495)
T1 construct: Bought protein; also called human monomeric MuSK-6xhis; not shown: histidine tag (6xhis)
T1 sequence: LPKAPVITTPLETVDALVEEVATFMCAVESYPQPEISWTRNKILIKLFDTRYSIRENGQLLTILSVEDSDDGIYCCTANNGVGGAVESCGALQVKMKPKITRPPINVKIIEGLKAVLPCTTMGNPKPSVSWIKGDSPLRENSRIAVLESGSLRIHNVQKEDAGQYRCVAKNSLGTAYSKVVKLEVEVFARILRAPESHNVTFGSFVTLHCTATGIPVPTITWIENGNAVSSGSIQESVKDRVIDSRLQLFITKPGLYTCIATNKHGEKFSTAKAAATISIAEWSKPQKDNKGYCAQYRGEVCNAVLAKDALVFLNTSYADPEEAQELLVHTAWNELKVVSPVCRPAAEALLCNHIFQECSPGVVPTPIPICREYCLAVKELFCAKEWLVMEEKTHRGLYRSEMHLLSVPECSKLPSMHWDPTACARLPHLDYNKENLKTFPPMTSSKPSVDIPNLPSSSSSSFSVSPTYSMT
Test: SPR (Biacore), MuSK-coated chip presaturated with 500 nM 4D3 (competitor)
Method: A chip was coated with ˜5000 RU of human MuSK (Lot nr DHUCO 11908A, batch nr 1089_MK). In a first experiment the saturating concentration of the pre-leads was determined. This is the concentration where the amplitude of a specific pre-lead doesn't increase anymore when additional pre-lead is injected on the immobilized MuSK.
observation.type: amplitude of prelead after presaturating MuSK (RU)

binder	result.units	observed.result
3D10a (antibody, human IgG1, kappa, L234A L235A, V domains shown) VH: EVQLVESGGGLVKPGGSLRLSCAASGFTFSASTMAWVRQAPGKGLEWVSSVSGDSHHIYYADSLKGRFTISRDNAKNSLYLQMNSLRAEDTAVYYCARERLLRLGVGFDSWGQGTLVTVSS VL: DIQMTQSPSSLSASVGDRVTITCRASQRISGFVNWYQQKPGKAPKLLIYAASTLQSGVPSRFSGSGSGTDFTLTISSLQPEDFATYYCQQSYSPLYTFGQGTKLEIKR	RU	68
